// reported intrinsic clearance, rat liver microsomes per item

CCn1nccc1-c1cc(CC2CCNCC2)ncn1 :: ≤ 0.64 L/h/kg
CS(=O)(=O)Cc1ccn(-c2ccccc2)n1 :: ≤ 0.64 L/h/kg
Cc1nc(O)c(Cl)c(N(C)CC2CCN(C)CC2)n1 :: ≤ 0.64 L/h/kg
O=C(NCc1nnc2c(O)nccn12)C1CCCC1 :: ≤ 0.64 L/h/kg
Cc1cc(C)n2nc(C)c(C(=O)NCCc3nnc(C)s3)c2n1 :: 1.98 L/h/kg
Cc1cc(-c2cnn(CCNC(=O)c3sc(C)nc3C)c2C2CC2)on1 :: 7.36 L/h/kg

Q: Fill in intrinsic clearance, rat liver microsomes for record O=C(NCc1cccnc1)c1sccc1-c1ccccc1
A: 52 L/h/kg

Q: Fill in intrinsic clearance, rat liver microsomes for record Cc1cc(C(=O)NCC2CCC3(CC2)OCCO3)[nH]n1
A: 5.95 L/h/kg

Q: Fill in intrinsic clearance, rat liver microsomes for record FC(F)(F)c1nc(Nc2ccc(-n3cnnn3)cc2)c2ccccc2n1
A: ≤ 0.64 L/h/kg

Q: Fill in intrinsic clearance, rat liver microsomes for record Cc1cc(CN2CC(O)(CC#N)C2)ccc1F
A: 42.2 L/h/kg

Q: Fill in intrinsic clearance, rat liver microsomes for record CC1CCC(N(Cc2nnc(C3CCC3)o2)C2CCC(O)CC2)CC1 (stereo unspecified)
A: 96.9 L/h/kg

Q: Fill in intrinsic clearance, rat liver microsomes for record Cc1cc(OCC(=O)N2CCC(n3c(=O)[nH]c4ccccc43)CC2)ccc1Cl
A: 86.9 L/h/kg

Q: Fill in intrinsic clearance, rat liver microsomes for record CC(COc1ccccc1Cc1ccccc1)N1CCCCC1 (stereo unspecified)
A: 173 L/h/kg

* * *

// reported log10 of intrinsic clearance, rat liver microsomes per item
Transform log10 | Measure intrinsic clearance, rat liver microsomes | Unit mL/min/kg

COc1ccc2nc(C)nc(N3CC(O)(c4ccc(F)cc4)C3)c2c1 :: 2.67
OCCC1(CNc2ncc(Br)cn2)CC1 :: 1.91

Q: Fill in log10 of intrinsic clearance, rat liver microsomes for record Cc1ccc(F)cc1C(=O)N1CCc2c(nc(-c3ccccn3)nc2N(C)C)C1
A: 1.79

Q: Fill in log10 of intrinsic clearance, rat liver microsomes for record CN(C)C(=O)c1ccnc(NCc2cccc(C#N)c2)c1
A: 1.84

Q: Fill in log10 of intrinsic clearance, rat liver microsomes for record COc1ccc(OC)c(C(=O)/C=C/c2ccccc2)c1
A: 3.29

Q: Fill in log10 of intrinsic clearance, rat liver microsomes for record CSc1ccc(-c2ccc3n(c2=O)C[C@@H]2CNC[C@H]3C2)cc1
A: 1.29

* * *

// reported log10(intrinsic clearance, rat liver microsomes) per item
Transform log10 | Measure intrinsic clearance, rat liver microsomes | Unit mL/min/kg

Known results for molecules:
CC(C)c1nccn1Cc1nc(-c2cccs2)no1 :: 3.29
CCCNC(=O)C1(NCc2csnn2)CCCCC1 :: 2.18
CCCCCCNc1ncnc2[nH]ccc12 :: 2.76
CCS(=O)(=O)Nc1ccc(Oc2ccc(F)cc2F)c(-c2cn(C)c(=O)c3[nH]ccc23)c1 :: 1.17
Cc1cc2ccccc2n1CC(=O)N1CCc2ccc(O)cc2C1 :: 2.66
Cc1ccc(C(=O)Nc2ccccc2C(C)(C)C)cn1 :: 1.48
CC(C)(C=C(C#N)C(=O)N1CCC[C@@H](n2nc(-c3ccc(Oc4ccccc4)cc3F)c3c(N)ncnc32)C1)N1CCN(C2COC2)CC1 :: 3.06
Cc1sc(C)c(C(=O)NC2(c3ccc(C(=O)O)cc3)CC2)c1Cc1ccc(C(F)(F)F)cc1 :: 1.49

Q: Fill in log10(intrinsic clearance, rat liver microsomes) for record COc1cc(/C=C2\CCCN([C@@H](C)c3ccc(F)cc3)C2=O)ccc1-n1cnc(C)c1
A: 1.92

Q: Fill in log10(intrinsic clearance, rat liver microsomes) for record COc1ccc(CCn2c(C3CC3)n[nH]c2=O)cc1
A: 2.56

Q: Fill in log10(intrinsic clearance, rat liver microsomes) for record CN1CCC(OC(=O)Nc2ccc(Cl)c(Cl)c2)CC1
A: 2.32

Q: Fill in log10(intrinsic clearance, rat liver microsomes) for record COc1cccc(-c2cccc(N)n2)c1F
A: 2.41
